Measured values drawn from the RNAGym collection of RNA variant scans (doi:10.7554/elife.80360) for this set.

Recorded self-cleavage, one value per entry.
B1: Hairpin Ribozyme (parent)
chain: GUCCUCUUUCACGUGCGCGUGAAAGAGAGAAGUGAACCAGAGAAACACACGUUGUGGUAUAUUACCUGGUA

# Variants of: B1
# Assay Overview: self-cleavage, relative activity (ratio to wild type); higher = more cleavage; co-transcriptional

{"Mutations": "A24C G29A", "self-cleavage": 0.0206}
{"Mutations": "C18G A41G", "self-cleavage": 0.555}
{"Mutations": "C6G A47G", "self-cleavage": 0.0875}
{"Mutations": "C10A U70C", "self-cleavage": 0.616}
